# assay text: Stability in human fecal homogenate (anaerobic)
# Type: in vitro ADME
# reported conditions: pH 6.8, 20% human fecal homogenate, 37° C., up to 24 hours, read-out: t1/2: Human Feces anaerobic
*1 amine or outer side, *2 acyl side, *3 side chain or, on linkers, in order; H or OH if unused. Where a SMILES comes first, the peptide text is derived from it. Bridges are numbered along the chain shown (N, C = ends). [ ]: non-standard residue; d: D form. X8 = COc1cccc(-c2cccc3c(C[C@H](N[*:1])C(=O)[*:2])c[nH]c23)c1; 2Nal = N[C@@H](Cc1ccc2ccccc2c1)C(=O)O; AEF = NCCOc1ccc(C[C@H](N)C(=O)O)cc1; Pen = CC(C)(S)[C@H](N)C(=O)O; αMeK = C[C@](N)(CCCCN)C(=O)O
endpoint: half-life at 20 μM

Per the records, this compound ( COc1cccc(-c2cccc3c(C[C@@H]4NC(=O)[C@H]([C@@H](C)O)NC(=O)[C@H](CC(N)=O)NC(=O)[C@@H](NC(C)=O)C(C)(C)SSC(C)(C)[C@@H](C(=O)N[C@@H](Cc5ccc(OCCN)cc5)C(=O)N[C@@H](Cc5ccc6ccccc6c5)C(=O)N[C@@](C)(CCCCN)C(=O)N[C@@H](CCCCNC(C)=O)C(=O)N[C@@H](CC(N)=O)C(=O)N[C@H](CCCCN)C(N)=O)NC(=O)[C@H](CCCCNC(C)=O)NC4=O)c[nH]c23)c1 [Peptide 8] (Ac-[Pen]NT[X8]K(Ac)[Pen][AEF][2Nal][αMeK]K(Ac)N[dK]-NH2; disulfide 1-6) ) has half-life at 20 μM equal to > 24 h

---

half-life at 20 μM values by entry
# assay text: Stability in rat plasma
# Type: in vitro ADME
# reported conditions: both sexes, SD rat plasma, EDTA, 37° C., up to 24 hours, read-out: t1/2: Rat Plasma EDTA
*1 amine or outer side, *2 acyl side, *3 side chain or, on linkers, in order; H or OH if unused. Where a SMILES comes first, the peptide text is derived from it. Bridges are numbered along the chain shown (N, C = ends). [ ]: non-standard residue; d: D form. Trp(7-Ph) = N[C@@H](Cc1c[nH]c2c(-c3ccccc3)cccc12)C(=O)O; X4 = O=C([C@H](Cc1c[nH]c2c(-c3ccsc3)cccc12)N[*:1])[*:2]; Ala(quinolin-3-yl) = N[C@@H](Cc1cnc2ccccc2c1)C(=O)O; 2Nal = N[C@@H](Cc1ccc2ccccc2c1)C(=O)O; AEF = NCCOc1ccc(C[C@H](N)C(=O)O)cc1; Pen = CC(C)(S)[C@H](N)C(=O)O; αMeK = C[C@](N)(CCCCN)C(=O)O; Thp = NC1(C(=O)O)CCOCC1

molecule	half-life at 20 μM
CC(=O)NCCCC[C@@H]1NC(=O)[C@H](Cc2c[nH]c3c(-c4ccccc4)cccc23)NC(=O)[C@H]([C@@H](C)O)NC(=O)[C@H](CC(N)=O)NC(=O)[C@@H](NC(C)=O)C(C)(C)SSC(C)(C)[C@@H](C(=O)N[C@@H](Cc2ccc(OCCN)cc2)C(=O)N[C@@H](Cc2cnc3ccccc3c2)C(=O)NC2(C(=O)N[C@@H](CCC(=O)O)C(=O)N[C@@H](CC(N)=O)C(=O)N[C@H](CC(C)C)C(N)=O)CCOCC2)NC1=O [Peptide 15] (Ac-[Pen]NT[Trp(7-Ph)]K(Ac)[Pen][AEF][Ala(quinolin-3-yl)][Thp]EN[dL]-NH2; disulfide 1-6)	> 24 h
CC(=O)NCCCC[C@H](NC(=O)[C@](C)(CCCCN)NC(=O)[C@H](Cc1ccc2ccccc2c1)NC(=O)[C@H](Cc1ccc(OCCN)cc1)NC(=O)[C@H]1NC(=O)[C@H](CCC(N)=O)NC(=O)[C@H](Cc2c[nH]c3c(-c4ccsc4)cccc23)NC(=O)[C@H]([C@@H](C)O)NC(=O)[C@H](CC(N)=O)NC(=O)[C@@H](NC(C)=O)C(C)(C)SSC1(C)C)C(=O)N[C@@H](CC(N)=O)C(=O)N[C@H](CCCCN)C(N)=O [Peptide 2] (Ac-[Pen]NT[X4]Q[Pen][AEF][2Nal][αMeK]K(Ac)N[dK]-NH2; disulfide 1-6)	> 24 h

Per the records, this molecule ( CC(=O)NCCCC[C@@H]1NC(=O)[C@H](Cc2c[nH]c3c(-c4ccccc4)cccc23)NC(=O)[C@H]([C@@H](C)O)NC(=O)[C@H](CC(N)=O)NC(=O)[C@@H](NC(C)=O)C(C)(C)SSC(C)(C)[C@@H](C(=O)N[C@@H](Cc2ccc(OCCN)cc2)C(=O)N[C@@H](Cc2cnc3ccccc3c2)C(=O)NC2(C(=O)N[C@@H](CCC(=O)O)C(=O)N[C@@H](CC(N)=O)C(=O)N[C@H](CCCCN)C(N)=O)CCOCC2)NC1=O [Peptide 13] (Ac-[Pen]NT[Trp(7-Ph)]K(Ac)[Pen][AEF][Ala(quinolin-3-yl)][Thp]EN[dK]-NH2; disulfide 1-6) ) has half-life at 20 μM equal to > 24 h

---

# assay text: Stability in simulated intestinal fluid (SIF)
# Type: in vitro ADME
# reported conditions: 100 fold dilution of standard SIF concentration, 37° C., 20 μM
*1 amine or outer side, *2 acyl side, *3 side chain or, on linkers, in order; H or OH if unused. Where a SMILES comes first, the peptide text is derived from it. Bridges are numbered along the chain shown (N, C = ends). [ ]: non-standard residue; d: D form. X2 = O=C([C@H](Cc1c[nH]c2c(-c3ccc(F)cc3)cccc12)N[*:1])[*:2]; 2Nal = N[C@@H](Cc1ccc2ccccc2c1)C(=O)O; AEF = NCCOc1ccc(C[C@H](N)C(=O)O)cc1; Pen = CC(C)(S)[C@H](N)C(=O)O; αMeK = C[C@](N)(CCCCN)C(=O)O
endpoint: SIF t1/2 (h)
# output: bare number, implied unit h

Per the records, this molecule ( CC(=O)NCCCC[C@@H]1NC(=O)[C@H](Cc2c[nH]c3c(-c4ccc(F)cc4)cccc23)NC(=O)[C@H]([C@@H](C)O)NC(=O)[C@H](CC(N)=O)NC(=O)[C@@H](NC(C)=O)C(C)(C)SSC(C)(C)[C@@H](C(=O)N[C@@H](Cc2ccc(OCCN)cc2)C(=O)N[C@@H](Cc2ccc3ccccc3c2)C(=O)N[C@@](C)(CCCCN)C(=O)N[C@@H](CCCCNC(C)=O)C(=O)N[C@@H](CC(N)=O)C(=O)N[C@H](CCCCN)C(N)=O)NC1=O [Peptide 10] (Ac-[Pen]NT[X2]K(Ac)[Pen][AEF][2Nal][αMeK]K(Ac)N[dK]-NH2; disulfide 1-6) ) has SIF t1/2 equal to 24

---

# assay text: Stability in human fecal homogenate (anaerobic)
# Type: in vitro ADME
# reported conditions: 20% fecal homogenate (supernatant), pH 6.8, 20% human fecal homogenate, 37° C., up to 24 hours, read-out: t1/2: Human Feces anaerobic
*1 amine or outer side, *2 acyl side, *3 side chain or, on linkers, in order; H or OH if unused. Where a SMILES comes first, the peptide text is derived from it. Bridges are numbered along the chain shown (N, C = ends). [ ]: non-standard residue; d: D form. Trp(7-Ph) = N[C@@H](Cc1c[nH]c2c(-c3ccccc3)cccc12)C(=O)O; X4 = O=C([C@H](Cc1c[nH]c2c(-c3ccsc3)cccc12)N[*:1])[*:2]; Ala(quinolin-3-yl) = N[C@@H](Cc1cnc2ccccc2c1)C(=O)O; 2Nal = N[C@@H](Cc1ccc2ccccc2c1)C(=O)O; AEF = NCCOc1ccc(C[C@H](N)C(=O)O)cc1; Pen = CC(C)(S)[C@H](N)C(=O)O; αMeK = C[C@](N)(CCCCN)C(=O)O; Thp = NC1(C(=O)O)CCOCC1
half-life at 20 μM values by entry

compound	half-life at 20 μM
CC(=O)NCCCC[C@@H]1NC(=O)[C@H](Cc2c[nH]c3c(-c4ccccc4)cccc23)NC(=O)[C@H]([C@@H](C)O)NC(=O)[C@H](CC(N)=O)NC(=O)[C@@H](NC(C)=O)C(C)(C)SSC(C)(C)[C@@H](C(=O)N[C@@H](Cc2ccc(OCCN)cc2)C(=O)N[C@@H](Cc2cnc3ccccc3c2)C(=O)NC2(C(=O)N[C@@H](CCC(=O)O)C(=O)N[C@@H](CC(N)=O)C(=O)N[C@H](CC(C)C)C(N)=O)CCOCC2)NC1=O [Peptide 15] (Ac-[Pen]NT[Trp(7-Ph)]K(Ac)[Pen][AEF][Ala(quinolin-3-yl)][Thp]EN[dL]-NH2; disulfide 1-6)	> 24 h

Per the records, this compound ( CC(=O)NCCCC[C@@H]1NC(=O)[C@H](Cc2c[nH]c3c(-c4ccccc4)cccc23)NC(=O)[C@H]([C@@H](C)O)NC(=O)[C@H](CC(N)=O)NC(=O)[C@@H](NC(C)=O)C(C)(C)SSC(C)(C)[C@@H](C(=O)N[C@@H](Cc2ccc(OCCN)cc2)C(=O)N[C@@H](Cc2cnc3ccccc3c2)C(=O)NC2(C(=O)N[C@@H](CCC(=O)O)C(=O)N[C@@H](CC(N)=O)C(=O)N[C@H](CCCCN)C(N)=O)CCOCC2)NC1=O [Peptide 13] (Ac-[Pen]NT[Trp(7-Ph)]K(Ac)[Pen][AEF][Ala(quinolin-3-yl)][Thp]EN[dK]-NH2; disulfide 1-6) ) has half-life at 20 μM equal to > 24 h

Per the records, this compound ( CC(=O)NCCCC[C@H](NC(=O)[C@](C)(CCCCN)NC(=O)[C@H](Cc1ccc2ccccc2c1)NC(=O)[C@H](Cc1ccc(OCCN)cc1)NC(=O)[C@H]1NC(=O)[C@H](CCC(N)=O)NC(=O)[C@H](Cc2c[nH]c3c(-c4ccsc4)cccc23)NC(=O)[C@H]([C@@H](C)O)NC(=O)[C@H](CC(N)=O)NC(=O)[C@@H](NC(C)=O)C(C)(C)SSC1(C)C)C(=O)N[C@@H](CC(N)=O)C(=O)N[C@H](CCCCN)C(N)=O [Peptide 2] (Ac-[Pen]NT[X4]Q[Pen][AEF][2Nal][αMeK]K(Ac)N[dK]-NH2; disulfide 1-6) ) has half-life at 20 μM equal to > 24 h
